target: T1, Wild type CD117 expressed on cells (M07e cells, unedited human CD34+ HSPCs) (human, UniProt P10721 26-976); experiment: flow cytometry on M07e cells, AF647 secondary (FIG. 76A)
T1 construct: Endogenous receptor on cells; also called wtCD117; WT CD117
T1 sequence (P10721 26-976 limits assumed): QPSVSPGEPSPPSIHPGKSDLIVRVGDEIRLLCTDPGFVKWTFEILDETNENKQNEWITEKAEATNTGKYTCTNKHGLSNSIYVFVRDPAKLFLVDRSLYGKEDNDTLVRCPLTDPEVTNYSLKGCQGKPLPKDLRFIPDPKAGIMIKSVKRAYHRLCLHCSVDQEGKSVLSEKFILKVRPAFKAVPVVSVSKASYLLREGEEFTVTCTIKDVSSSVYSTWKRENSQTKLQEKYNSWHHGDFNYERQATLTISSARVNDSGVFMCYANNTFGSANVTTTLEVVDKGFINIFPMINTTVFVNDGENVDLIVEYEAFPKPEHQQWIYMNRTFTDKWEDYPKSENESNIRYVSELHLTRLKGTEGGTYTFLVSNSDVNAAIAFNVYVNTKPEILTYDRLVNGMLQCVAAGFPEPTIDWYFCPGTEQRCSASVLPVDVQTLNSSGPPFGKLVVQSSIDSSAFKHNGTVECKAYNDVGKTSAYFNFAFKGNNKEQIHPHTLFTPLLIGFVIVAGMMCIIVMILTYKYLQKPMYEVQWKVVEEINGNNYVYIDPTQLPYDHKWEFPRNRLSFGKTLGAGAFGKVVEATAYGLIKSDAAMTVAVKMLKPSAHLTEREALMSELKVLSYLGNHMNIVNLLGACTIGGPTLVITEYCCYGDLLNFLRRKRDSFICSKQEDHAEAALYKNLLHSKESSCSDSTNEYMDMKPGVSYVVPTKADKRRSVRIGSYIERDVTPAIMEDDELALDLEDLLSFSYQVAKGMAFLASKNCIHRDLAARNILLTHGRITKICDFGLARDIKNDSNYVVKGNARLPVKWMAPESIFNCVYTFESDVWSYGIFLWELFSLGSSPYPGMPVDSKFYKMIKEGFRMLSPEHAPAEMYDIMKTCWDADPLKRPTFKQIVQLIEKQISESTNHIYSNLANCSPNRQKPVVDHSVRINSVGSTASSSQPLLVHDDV
Entries and their pEC50 values follow.
Reminder that pEC50 is minus the log10 of a molar concentration.

| binder | pEC50 |
| --- | --- |
| ABTx198 (antibody, human IgG1, V domains shown) VH: EVQLVESGGGLVQPGRSLRLSCAASGFTFDDYAMHWVRQAPGKGLEWVSGISWNSGTIGYADSVKGRFTNSRDNAKNSLYLEMNSLRAEDTALYYCAKDSPPGYCASASCYGAFDIWGQGTMVTVSS VL: DVVMTQSPGTLSLSPGERATLSCRASQSVSSSYLAWYQQKPGQAPRLLIYGASSRATGIPDRFSGSGSGTDFTLTISRLEPEDFAVYYCQQDSLGLTFGGGTKLEIK | 8.27 |
| ABTx206 (antibody, human IgG1, V domains shown) VH: EVQLVESGGGLVQPGRSLRLSCAASGFTFDDYAMHWVRQAPGKGLEWVSGISWNSGTIGYADSVKGRFTNSRDNAKNSLYLEMNSLRAEDTALYYCAKDSPPGYCSSASCYGAFDIRGQGTMVTVSS VL: DIVMTQSPSFLSASVGDRVTITCRASQGISSYLAWYQQKPGKAPKLLIYAASTLQNGVPSRFSGSGSGTDFTLTITSLQPEDFATYYCQQSYSTPYTFGQGTKLEIK | 7.85 |
| ABTx196 (antibody, human IgG1, V domains shown) VH: EVQLVESGGGLVQPGRSLRLSCAASGFTFDDYAMHWVRQAPGKGLEWVSGISWNSGTIGYADSVKGRFTNSRDNAKNSLYLEMNSLRAEDTALYYCAKDSPPGYCSSASCYGAFDIWGQGTMVTVSS VL: DVVMTQSPGTLSLSPGERATLSCRASQSVSSSYLAWYQQKPGQAPRLLIYGASSRATGIPDRFSGSGSGTDFTLTISRLEPEDFAVYYCQQSETCLTFGGGTKLEIK | 8.28 |

Prompt line: Value lookup for pEC50; key = ABTx205 (antibody, human IgG1, V domains shown) VH: EVQLVESGGGLVQPGRSLRLSCAASGFTFDDYAMHWVRQAPGKGLEWVSGISWNSGTIGYADSVKGRFTNSRDNAKNSLYLEMNSLRAEDTALYYCAKDSPPGYCSSASCYGAFDIWGQGTMVTVSS VL: DIVMTQSPSFLSASVGDRVTITCRASQGISSYLAWYQQKPGKAPKLLIYAASTLQNGVPSRFSGSGSGTDFTLTITSLQPEDFATYYCQQSYSTPYTFGQGTKLEIK
Response line: 8.13

Prompt line: Same for ABTx202 (antibody, human IgG1, V domains shown) VH: EVQLVESGGGLVQPGRSLRLSCAASGFTFDDYAMHWVRQAPGKGLEWVSGISWNSGTIGYADSVKGRFTSSRDNAKNSLYLEMNSLRAEDTALYYCAKDSPPGYCSSASCYGAFDIWGQGTMVTVSS VL: EIVMTQSPGTLSLSPGERATLSCRASQSVSSSYLAWYQQKPGQAPRLLIYGSSTRATGIPARFSGSGSGTEFALTISSLQSEDFAVYYCQQYNFWPYTFGQGTKVEIK
Response line: 8.10

Prompt line: Same question, ABTx203 (antibody, human IgG1, V domains shown) VH: EVQLVESGGGLVQPGRSLRLSCAASGFTFDDYAMHWVRQAPGKGLEWVSGISWNSGTIGYADSVKGRFTNSRDNAKNSLYLEMNSLRAEDTALYYCAKDWPSGFCSSAYCYGAFDIWGQGTMVTVSS VL: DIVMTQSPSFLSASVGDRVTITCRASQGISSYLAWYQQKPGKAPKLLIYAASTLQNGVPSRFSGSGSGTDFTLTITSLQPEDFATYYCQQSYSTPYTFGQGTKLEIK this time
Response line: 8.25
